- ASSAY OVERVIEW: RP, Waters ACQUITY UPLC BEH Shield RP18, 150 × 3 mm, 1.7 µm, 40 °C, 0.5 mL/min, estimated dead time 1.4 min; A: water + 0.1% formic acid; B: acetonitrile + 0.1% formic acid; gradient (min/%B) 0/0 9.91/26 18.51/65 18.76/100 20.76/100
- CONDITION: stereoisomer not certain
VALUE TYPE: LC retention time (min)
Just the number please, in min, no unit attached.

O=c1c(O)c(-c2ccc(O)cc2)oc2cc(O)cc(O)c12 has a reported LC retention time of 18.4

O=C(C=Cc1ccc(O)c(O)c1)OC1CC(O)(C(=O)O)CC(O)C1O (stereo not given) has a reported LC retention time of 8.3

O=c1c(O)c(-c2ccc(O)c(O)c2)oc2cc(O)cc(O)c12 has a reported LC retention time of 16.7

O=c1cc(-c2ccc(O)c(O)c2)oc2cc(OC3OC(CO)C(O)C(O)C3O)cc(O)c12 (stereo not given) has a reported LC retention time of 12.7

CC1OC(OC2C(Oc3cc(O)c4c(c3)OC(c3ccc(O)cc3)CC4=O)OC(CO)C(O)C2O)C(O)C(O)C1O (stereo not given) has a reported LC retention time of 13

O=C(O)c1cc(O)c(O)c(O)c1 has a reported LC retention time of 4.79

COc1cc(C=CC(=O)O)ccc1O has a reported LC retention time of 12.8

O=C(CCc1ccc(O)cc1)c1c(O)cc(O)cc1O has a reported LC retention time of 17

O=C(O)Cc1ccc(O)cc1 has a reported LC retention time of 8.61

O=c1c(O)c(-c2ccccc2)oc2cc(O)cc(O)c12 has a reported LC retention time of 20.3

O=c1cc(-c2ccc(O)cc2)oc2cc(O)cc(O)c12 has a reported LC retention time of 18

O=C(O)C=Cc1ccc(O)cc1 has a reported LC retention time of 12.7

O=C(O)c1ccccc1O has a reported LC retention time of 14.5

O=c1cc(-c2ccc(O)c(O)c2)oc2cc(O)cc(O)c12 has a reported LC retention time of 16.6

COc1cc(-c2oc3cc(O)cc(O)c3c(=O)c2O)ccc1O has a reported LC retention time of 18.1

O=C(CCc1ccc(O)cc1)c1c(O)cc(O)cc1OC1OC(CO)C(O)C(O)C1O (stereo not given) has a reported LC retention time of 13.7

COc1cc(CCC(=O)O)ccc1O has a reported LC retention time of 11.3

O=c1cc(-c2ccc(O)cc2)oc2cc(OC3OC(CO)C(O)C(O)C3O)cc(O)c12 (stereo not given) has a reported LC retention time of 13.7

O=C(O)CCc1ccc(O)c(O)c1 has a reported LC retention time of 8.65

CC1OC(OCC2OC(Oc3c(-c4ccc(O)c(O)c4)oc4cc(O)cc(O)c4c3=O)C(O)C(O)C2O)C(O)C(O)C1O (stereo not given) has a reported LC retention time of 12.6

Reference source for all entries: the RepoRT retention time repository (doi:10.1016/j.foodchem.2012.08.062)
